# TEST_METHOD_NOTES: Compound cytotoxicity, XTT-based colorimetric assay
# Type: cell-based
# CONDITION_DESCRIPTION: human, uninfected MT2 cells, day 4, XTT
RECORDED_METRIC: CC50 at 4 days (µM)

• COc1ccc(N(C)C(=O)[C@H](Cc2ccccc2)NC(=O)c2ccnc(C(=O)N[C@@H](Cc3ccccc3)C(=O)N(C)c3ccc(OC)cc3)c2)cc1 = 3.1
• COc1ccc(N(C)C(=O)[C@H](Cc2ccccc2)NC(=O)c2cc(C(=O)N[C@@H](Cc3ccccc3)C(=O)N(C)c3ccc(OC)cc3)[nH]n2)cc1 = 3.5
• CN(C(=O)[C@H](Cc1cc(F)cc(F)c1)NC(=O)NS(=O)(=O)N[C@@H](Cc1cc(F)cc(F)c1)C(=O)N(C)c1ccc(OC(F)F)nc1)c1ccc(OC(F)F)nc1 = 43.8
• COc1ccc(N(C)C(=O)[C@H](Cc2ccccc2)NC(=O)CCN2CCN(CCC(=O)N[C@@H](Cc3ccccc3)C(=O)N(C)c3ccc(OC)cc3)CC2)cc1 = 36
• COc1ccc(N(C)C(=O)[C@H](Cc2cc(F)cc(F)c2)NC(=O)NS(=O)(=O)N[C@@H](Cc2cc(F)cc(F)c2)C(=O)N(C)c2ccc(OC)cc2)cc1 = 35
• CN(C(=O)[C@H](Cc1ccccc1)NC(=O)NS(=O)(=O)N[C@@H](Cc1ccccc1)C(=O)N(C)c1ccc(C(C)(C)C)cc1)c1ccc(C(C)(C)C)cc1 = 26.5
• Cc1ncc(N(C)C(=O)[C@H](Cc2cc(F)cc(F)c2)NC(=O)NS(=O)(=O)N[C@@H](Cc2cc(F)cc(F)c2)C(=O)N(C)c2cnc(C)c(Cl)c2)cc1Cl = 2.3
• COc1ccc(N(C)C(=O)[C@H](Cc2ccccc2)NC(=O)/C=C/CC(=O)N[C@@H](Cc2ccccc2)C(=O)N(C)c2ccc(OC)cc2)cc1 = 30.8
• COc1ccc(-n2ccnc2C(Cc2ccccc2)NC(=O)NS(=O)(=O)N[C@@H](Cc2ccccc2)c2nccn2-c2ccc(OC)cc2)cc1 (stereo partly shown) = 86.4
• COc1ccc(N(C)C(=O)[C@H](Cc2ccccc2)NS(=O)(=O)NC(=O)N[C@@H](Cc2ccccc2)C(=O)N(C)c2ccc3scnc3c2)cc1 = 99.9
• COc1ccc(N(C)C(=O)[C@H](Cc2ccccc2)NC(=O)c2cc(C(=O)O)cc(C(=O)N[C@@H](Cc3ccccc3)C(=O)N(C)c3ccc(OC)cc3)c2)cc1 = 85.8
• CCc1ccc(N(C)C(=O)[C@H](Cc2cc(F)cc(F)c2)NC(=O)NS(=O)(=O)N[C@@H](Cc2cc(F)cc(F)c2)C(=O)N(C)c2ccc(CC)cc2)cc1 = 25.5
• COc1ccc(N(C)C(=O)[C@H](Cc2ccccc2)NC(=O)Cc2cn(CC(=O)N[C@@H](Cc3ccccc3)C(=O)N(C)c3ccc(OC)cc3)c3ccccc23)cc1 = 32.6
• COc1ccc(N(C)C(=O)[C@H](Cc2ccccc2)NC(=O)CC(C)(C)CC(=O)N[C@@H](Cc2ccccc2)C(=O)N(C)c2ccc(OC)cc2)cc1 = 9.6
